system tested: PDE11A4 (Homo sapiens, UniProt Q9HCR9)
Sequence (Q9HCR9 whole entry): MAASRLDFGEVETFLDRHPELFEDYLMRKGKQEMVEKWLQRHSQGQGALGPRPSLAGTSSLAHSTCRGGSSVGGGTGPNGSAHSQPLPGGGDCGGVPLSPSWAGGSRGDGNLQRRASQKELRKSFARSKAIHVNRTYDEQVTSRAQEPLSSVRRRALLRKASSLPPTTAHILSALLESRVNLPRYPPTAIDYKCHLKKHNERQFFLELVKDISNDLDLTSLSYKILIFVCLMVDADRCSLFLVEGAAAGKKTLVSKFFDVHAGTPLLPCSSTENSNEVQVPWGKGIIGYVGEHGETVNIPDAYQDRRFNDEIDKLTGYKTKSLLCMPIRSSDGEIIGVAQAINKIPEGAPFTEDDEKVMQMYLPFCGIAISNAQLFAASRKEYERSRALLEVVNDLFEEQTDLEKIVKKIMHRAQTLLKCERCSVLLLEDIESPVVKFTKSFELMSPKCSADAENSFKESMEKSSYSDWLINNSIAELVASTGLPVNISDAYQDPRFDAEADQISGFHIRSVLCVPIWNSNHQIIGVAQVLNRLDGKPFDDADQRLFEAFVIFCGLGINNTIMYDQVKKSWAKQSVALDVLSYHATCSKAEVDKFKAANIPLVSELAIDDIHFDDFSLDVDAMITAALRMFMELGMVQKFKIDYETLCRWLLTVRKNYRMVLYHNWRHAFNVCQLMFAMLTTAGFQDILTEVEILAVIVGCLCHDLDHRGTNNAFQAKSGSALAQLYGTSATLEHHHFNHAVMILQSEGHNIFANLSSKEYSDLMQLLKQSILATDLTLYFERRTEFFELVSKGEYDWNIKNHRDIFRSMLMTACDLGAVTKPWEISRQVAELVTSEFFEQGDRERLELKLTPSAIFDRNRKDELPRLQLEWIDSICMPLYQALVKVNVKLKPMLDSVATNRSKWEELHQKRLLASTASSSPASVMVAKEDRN
pIC50: −log10 of the molar value.
measured property: pIC50

- smiles representation: "COc1ccc(-c2cc(=O)c3c(OC)c(OC)c(OC)c(OC)c3o2)cc1OC"
  assay value: 4.51

----------
system tested: PDE7B (Homo sapiens)
Sequence (Q9NP56 whole entry): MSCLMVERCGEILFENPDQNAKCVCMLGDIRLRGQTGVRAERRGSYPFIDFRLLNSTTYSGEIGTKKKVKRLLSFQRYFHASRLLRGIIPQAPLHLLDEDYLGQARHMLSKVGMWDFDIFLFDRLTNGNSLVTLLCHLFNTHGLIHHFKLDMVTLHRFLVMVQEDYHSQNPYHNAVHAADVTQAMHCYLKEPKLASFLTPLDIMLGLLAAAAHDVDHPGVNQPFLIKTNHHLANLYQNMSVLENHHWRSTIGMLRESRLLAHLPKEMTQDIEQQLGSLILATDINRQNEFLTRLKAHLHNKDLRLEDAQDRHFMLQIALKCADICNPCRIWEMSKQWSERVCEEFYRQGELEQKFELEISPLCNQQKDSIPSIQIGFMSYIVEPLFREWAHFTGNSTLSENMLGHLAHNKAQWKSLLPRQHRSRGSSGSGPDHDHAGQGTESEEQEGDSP
pIC50: −log10 of the molar value.

- smiles representation: "COc1ccc(-c2cc(=O)c3c(OC)c(OC)c(OC)c(OC)c3o2)cc1OC"
  system tested: "PDE7B (Homo sapiens)"
  pIC50: 4.69

Every entry's value here was drawn from paper PMC11123956.
